Hi there, I'd appreciate the recorded mass density for every entry that follows.
settings: 313.15 K; 101.33 kPa; Liquid; Vibrating tube method
Hi! Could you send only the number? It should be in kg/m3, unit omitted.

Which mass density is reported for this compound? CNc1ccccc1 [N-methylaniline] 970.89

Same again, this time with Nc1ccccc1 [aniline] 1004.49

Same again, this time with OCc1ccccc1 [benzenemethanol] 1029.36
